Reported self-cleavage by item:
B1: CPEB3 Ribozyme (parent)
chain: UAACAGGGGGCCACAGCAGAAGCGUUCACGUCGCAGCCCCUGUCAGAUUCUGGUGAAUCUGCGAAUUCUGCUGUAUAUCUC

variants of: B1; test: self-cleavage, relative activity (ratio to wild type); higher = more cleavage; in vitro, sequencing
testReadout: self-cleavage

• A2U C23U = 0.35
• C11U A18U = 0.24
• G8U U69C = 0.09
• A45G U58C = 0.31
• U49C U66G = 0.29
• A13G C39G = 0.27
• C23G U74C = 0.41
• G6A A13G = 0.35
• G55U C79U = 1.16
• U25A A47G = 0.33
• G30C U51C = 0.19
